Test system: HCT-116 colon
TEST: NCI tumour cell line growth inhibition, 48 h
METRIC: TGI (µM)
Please respond with the number in µM and leave the unit unwritten.

COMPOUND	TGI / µM
Cc1cc(OCc2n[nH]c(=S)n2/N=C/c2ccc(F)cc2)ccc1Cl	53.1
CC1(C)OCC(C2CCC3(C)C4=CCC5C(C)(C)C(O)CCC5(C)C4CCC23C)CC(O)C1O (stereo unspecified)	27.3

### Prompt Value wanted: TGI (HCT-116 colon) of entry COC(=O)C1=C(C)NC(C)=C(C(=O)OC)C1c1ccc(NO)cc1
### Response 21.8

* * *

Measured TGI, listed per entry.
Test system: SN12C renal
TEST: NCI tumour cell line growth inhibition, 48 h

// solved cases for TGI follow
COMPOUND	TGI
Cc1ccc(N(C)S(=O)(=O)c2ccc([N+](=O)[O-])cc2)cc1	> 100 µM
CCOC(=O)c1ccc2c(c1)c1c(C)c3ccncc3c(C)c1n2C	2.31 µM
CN(C)C=C1C(=O)N(C)C(=O)N(C)C1=O	> 100 µM
O=C(CC(=O)Nc1ccccc1Cl)NNC(c1cc(N=Nc2ccc(Br)cc2)ccc1O)P(O)O (stereo not drawn)	> 10 µM
COc1cc(C2c3cc4c(cc3OC(N3CCCCC3)C2C)OCO4)cc(OC)c1OC (stereo not drawn)	> 100 µM

### Prompt Bench note: what TGI did CCOC1=CP(=O)(OCC)CC(C)=C1Cl (stereo not drawn) show?
### Response > 100 µM

### Prompt Using the record for Cc1cn(CCOCCOC(=O)NC(CCCN=C(N)N)C(=O)O)c(=O)[nH]c1=O (stereo not drawn) , report its TGI.
### Response > 100 µM

### Prompt Name the recorded TGI for c1ccc(N=C2SC(c3ccccc3)(c3ccccc3)c3ccccc32)cc1 .
### Response > 100 µM

* * *

System: CCRF-CEM leukemia
TEST: NCI tumour cell line growth inhibition, 48 h
METRIC: TGI (µM)
Note: unit µM is implicit; provide only the numeric part.

CHEMICAL STRUCTURE	TARGET UNDER TEST	READOUT VALUE
CCCCCCCCCCCCCCCCP(=O)(OC)OC	CCRF-CEM leukemia	40.1

Alright, here's another molecule for you.
### Prompt May I ask what TGI has been recorded for COC1(OC)C[C@H](C)[C@@]23O[C@]24C2=CC(=O)C=CC2=N[C@H]3C#C/C=C\C#C[C@]14O ?
### Response 0.811

* * *

# reported TGI; entries follow
System: OVCAR-3 ovarian
TEST: NCI tumour cell line growth inhibition, 48 h

### Prompt Requested field: TGI. Item: COC(=O)C1=C(C)N2CCOC2(C)C(C(=O)OC)C1c1ccc[nH]1 (stereo not drawn)
### Response > 100 µM

### Prompt Recorded TGI of O=C1NC(=O)C(C(=O)C(=O)Nc2cccc(C(F)(F)F)c2)C(=O)N1 , please.
### Response > 100 µM

### Prompt What value of TGI has been reported for the following compound? CCOC(=O)[C@@H]1C2C(=C[C@H]3[C@H]1C(=O)N1CCCC[C@H]31)CCCN2C(=O)OCc1ccccc1 (stereo partly drawn)
### Response > 100 µM

### Prompt Using the record for Cc1ncc([N+](=O)[O-])n1CC(O)Cn1ccnc1[N+](=O)[O-] (stereo not drawn) , report its TGI.
### Response > 100 µM

### Prompt Query: TGI; subject: O=c1nc(Oc2c(F)c(F)c(F)c(F)c2F)ccn1C1OC(CO)C(O)C1O (stereo not drawn)
### Response > 100 µM

### Prompt Return reported TGI; argument: COc1ccccc1N=Nc1c(-c2ccccc2)nn(C(=O)CC(=O)Nc2ccccc2Cl)c1-c1ccccc1
### Response > 100 µM

### Prompt Endpoint output: TGI of COc1c(CC(=O)c2ccccc2)c2ccccc2n1C(C)=O . Value?
### Response > 100 µM

### Prompt Any idea what TGI was measured for COc1nc(-c2cn(S(=O)(=O)c3ccc(C)cc3)c3ccc(Br)cc23)cc(C(F)(F)F)c1C#N ?
### Response 35.8 µM

### Prompt If you can, please state the reported TGI value of COc1cc(Nc2cc(C)nc(N3CCN(c4ccnc5cc(Cl)ccc45)CC3)n2)cc(OC)c1 .
### Response 0.437 µM

### Prompt Given COC(=O)NC(Nc1ccc(Cl)cc1Cl)(C(F)(F)F)C(F)(F)F , state its recorded TGI.
### Response > 100 µM

### Prompt Look up TGI: C=C1C(=O)OC2C1CC[C@H](C)C1(O)C(O)CC(=O)[C@@]21C (stereo partly drawn)
### Response 47.8 µM

From: PubChem BioAssay (NCI)
